Sourced from patent US20220356210A1

Assay: In vitro cytotoxicity, MTT assay
Assay type: cell-based, human
Settings: human, human dermal fibroblasts (HDFs) in 12-well Transwell plates
No end group written: not given here.
Recorded endpoint: viability at 24 h, 1000 µg/mL

stdin: Consider the substance IRIKIRIK-NH2 [IK8L, IRIKIRIK] and give its measured viability at 24 h, 1000 µg/mL.
stdout: 22%

###

Assay: In vitro cytotoxicity, MTT assay
Type: cell-based, human
Settings: human, human primary keratinocytes in 12-well Transwell plates
Procedure: 1000 μL of HDFs or keratinocytes (10^5 cells per mL) were seeded onto the 12-well Transwell plates (Corning). IIK12 (1%) with various contents of antimicrobial peptides were dissolved in water and incubated at 37° C. overnight and 100 μL of gels were then transferred to the inserts of the Transwell plate. 1 mL of fresh medium was added into the inserts. […] The data were expressed as mean and standard deviation of three replicates and the tests were repeated 3 times.
No end group written: not given here.
Recorded endpoint: viability at 24 h, 125 µg/mL

stdin: Request the reported viability at 24 h, 125 µg/mL associated with IRIKIRIK-NH2 [IK8L, IRIKIRIK]
stdout: > 70%
